# Tested on: Streptococcus sp.
# Assay method text: in vitro antibacterial evaluation, MIC by broth dilution
# Type: cell-based
# Conditions: strain ATCC 6301; broth dilution, 18 hours at 35° C.
Quantity measured: MIC Streptococcus pneumoniae (ATCC 6301) (µg/mL)
Respond with the bare value in µg/mL.

The examples below pair each entry with its known result.
Molecule	Test system	MIC Streptococcus pneumoniae (ATCC 6301) [µg/mL]
CC(c1ccccc1)C1NC(=O)CNC(=O)C(CO)NC(=O)C(C(O)C2CNC(=N)N2C2OC(CO)C(O)C(O)C2O)NC(=O)C(C(O)C2CNC(=N)N2)NC(=O)C(Cc2ccc(OC3OC(CO)C(OC4OC(CO)C(O)C5OC(c6ccc(-c7ccsc7)cc6)OC45)C(O)C3O)cc2)NC1=O (centres unmarked) [Example 164a]	Streptococcus sp.	1
Cc1ccc(Oc2cccc(-c3nc4cc(CC5NC(=O)C(C(C)c6ccccc6)NC(=O)CNC(=O)C(CO)NC(=O)C(C(O)C6CNC(=N)N6C6OC(CO)C(O)C(O)C6O)NC(=O)C(C(O)C6CNC(=N)N6)NC5=O)ccc4o3)c2)cc1 (centres unmarked)	Streptococcus sp.	4
CC(c1ccccc1)C1NC(=O)CNC(=O)C(CO)NC(=O)C(C(O)C2CNC(=N)N2C2OC(CO)C(O)C(O)C2O)NC(=O)C(C(O)C2CNC(=N)N2)NC(=O)C(Cc2ccc3oc(C=C(c4ccccc4)c4ccccc4)nc3c2)NC1=O (centres unmarked)	Streptococcus sp.	8

Lab note: next molecule to report on.
Query: May I ask what MIC Streptococcus pneumoniae (ATCC 6301) has been recorded for CC(c1ccccc1)C1NC(=O)CNC(=O)C(CO)NC(=O)C(C(O)C2CNC(=N)N2C2OC(CO)C(O)C(O)C2O)NC(=O)C(C(O)C2CNC(=N)N2)NC(=O)C(Cc2ccc3oc(SCc4ccc5ccccc5c4)nc3c2)NC1=O (centres unmarked) ?
Response: 8
